Each record here notes measured kon.
# test system: T1, recombinant human CD40-his (Acro biosystems, Cat. No. CD0-H5228) (human, UniProt P25942 21-193)
# T1 construct: Bought protein; also called human CD40-his protein; not shown: His tag
# T1 sequence (P25942 21-193 limits assumed): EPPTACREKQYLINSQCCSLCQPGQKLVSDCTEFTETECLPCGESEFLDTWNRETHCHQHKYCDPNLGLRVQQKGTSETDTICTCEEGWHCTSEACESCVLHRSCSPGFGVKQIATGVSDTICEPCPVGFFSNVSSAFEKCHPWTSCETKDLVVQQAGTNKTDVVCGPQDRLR
# measurement protocol: BLI (Octet RED 96), antibody captured from cell supernatant on AHC sensor, human CD40-his as analyte, 1:1 fit
Report the figure in M⁻¹ s⁻¹ without appending any unit label.

Consider the worked cases shown below.
binder="humanized antibody huC1H1-V2 (antibody, human IgG2, kappa, V domains shown, Human IgG2 / kappa) VH: EVQLVESGGGLVKPGGSLRLSCAASGFTFSNYGISWVRQAPGKGLEWVSSISSGGDNTYYPDNVKGRFTISRDNAKNSLYLQMNSLRAEDTAVYYCARAGEKAMDYWGQGTLVTVSS VL: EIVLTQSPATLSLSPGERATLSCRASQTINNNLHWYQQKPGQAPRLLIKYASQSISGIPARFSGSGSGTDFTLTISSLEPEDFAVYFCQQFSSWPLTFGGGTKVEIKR" uom="M⁻¹ s⁻¹" experimental_result=1.65e+06
binder="humanized antibody huC1H1-V4 (antibody, human IgG2, kappa, V domains shown, Human IgG2 / kappa; Tested as cell supernatant in the Octet assay) VH: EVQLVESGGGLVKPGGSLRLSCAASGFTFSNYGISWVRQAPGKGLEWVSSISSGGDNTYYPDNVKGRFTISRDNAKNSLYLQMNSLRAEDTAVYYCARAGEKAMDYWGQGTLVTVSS VL: EIVLTQSPATLSLSPGERATLSCRASQTINNNLHWYQQKPGQAPRLLIYYASQSISGIPARFSGSGSGTDFTLTISSLEPEDFAVYYCQQFSSWPLTFGGGTKVEIKR" uom="M⁻¹ s⁻¹" experimental_result=424000
binder="humanized antibody huC1H1-V1 (antibody, human IgG2, kappa, V domains shown, Human IgG2 / kappa) VH: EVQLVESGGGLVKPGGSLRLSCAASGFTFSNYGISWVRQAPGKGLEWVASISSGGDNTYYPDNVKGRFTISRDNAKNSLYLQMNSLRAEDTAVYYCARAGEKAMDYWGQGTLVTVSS VL: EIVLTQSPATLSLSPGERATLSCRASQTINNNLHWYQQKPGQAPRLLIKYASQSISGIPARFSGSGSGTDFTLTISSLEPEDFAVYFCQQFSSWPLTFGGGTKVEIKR" uom="M⁻¹ s⁻¹" experimental_result=1.41e+06

Reported kon, binder humanized antibody huC1H1-V3 (antibody, human IgG2, kappa, V domains shown, Human IgG2 / kappa; Tested as cell supernatant in the Octet assay) VH: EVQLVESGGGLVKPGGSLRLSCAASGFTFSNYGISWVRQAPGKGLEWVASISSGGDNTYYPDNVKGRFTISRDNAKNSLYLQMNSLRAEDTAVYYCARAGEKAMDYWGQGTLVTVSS VL: EIVLTQSPATLSLSPGERATLSCRASQTINNNLHWYQQKPGQAPRLLIYYASQSISGIPARFSGSGSGTDFTLTISSLEPEDFAVYYCQQFSSWPLTFGGGTKVEIKR : ____ 523000

Data provenance is patent US20240398942A1.
